measurement.notes: Plasma pharmacokinetics of Compound 1 in patients with advanced solid tumor malignancies and TGCT
Type: in vivo, human
study.conditions: human, plasma, oral, 10 mg, Cohort 2 10 mg Twice Weekly after 5-day QD loading dose; C1D1; GM (CV %)
reported.endpoint: Cmax
In your response, put the unit directly after the numeric value.

Q: For `Cc1nc(-c2cnc(NC(C)C)n(C)c2=O)ccc1Oc1ccnc(-c2cnn(C)c2)c1` , write its Cmax.
A: 94 ng/mL

###

measurement.notes: Plasma pharmacokinetics of Compound 1 in patients with advanced solid tumor malignancies and TGCT
Type: in vivo, human
study.conditions: human, plasma, oral, 40 mg, Cohort 6 40 mg Twice Weekly after 5-day QD loading dose; C1D8; Median (Min, Max)
reported.endpoint: Tmax
# output: number + unit

Q: Kindly indicate its recorded Tmax. Item: Cc1nc(-c2cnc(NC(C)C)n(C)c2=O)ccc1Oc1ccnc(-c2cnn(C)c2)c1 [Compound 1]
A: 1 h

###

measurement.notes: in vivo
study.conditions: Sprague-Dawley, rat
reported.endpoint: NOAEL at 13 weeks (mg/kg/day)
Provide the reading as a plain figure in mg/kg/day.

Q: Provide measured NOAEL at 13 weeks value, entry: Cc1nc(-c2cnc(NC(C)C)n(C)c2=O)ccc1Oc1ccnc(-c2cnn(C)c2)c1 [Compound 1]
A: 1.88

###

measurement.notes: Plasma pharmacokinetics of Compound 1 in patients with advanced solid tumor malignancies and TGCT
Type: in vivo, human
study.conditions: human, plasma, oral, 20 mg, Cohort 3 20 mg Weekly after 5-day QD loading dose; C1D1; Median (Min, Max)
reported.endpoint: Tmax
Please make sure the unit comes right after the number.

Q: Give the value of Tmax reported for the following: Cc1nc(-c2cnc(NC(C)C)n(C)c2=O)ccc1Oc1ccnc(-c2cnn(C)c2)c1 [Compound 1]
A: 1 h

###

measurement.notes: Plasma pharmacokinetics of Compound 1 in patients with advanced solid tumor malignancies and TGCT
Format: in vivo, human
study.conditions: human, plasma, oral, 30 mg, Cohort 5 30 mg Twice Weekly after 5-day QD loading dose; Day-7; GM (CV %); read-out: AUC0-8
reported.endpoint: AUC(0-t) (ng·h/mL)
Give a bare numeral; the unit ng·h/mL is implied.

Q: Please supply the value of reported AUC(0-t) for the item `Cc1nc(-c2cnc(NC(C)C)n(C)c2=O)ccc1Oc1ccnc(-c2cnn(C)c2)c1`
A: 1390

###

measurement.notes: Plasma pharmacokinetics of Compound 1 in patients with advanced solid tumor malignancies and TGCT
Type: in vivo, human
study.conditions: human, plasma, oral, 10 mg, Cohort 1 10 mg QD; C1D1; Median (Min, Max)
reported.endpoint: Tmax (h)
The reply should contain only the number, in h.

Q: Provide one value: measured Tmax of Cc1nc(-c2cnc(NC(C)C)n(C)c2=O)ccc1Oc1ccnc(-c2cnn(C)c2)c1 [Compound 1]
A: 1

###

measurement.notes: Plasma pharmacokinetics of Compound 1 in patients with advanced solid tumor malignancies and TGCT
Assay type: in vivo, human
study.conditions: human, plasma, oral, 20 mg, Cohort 3 20 mg Weekly after 5-day QD loading dose; Day-7; Median (Min, Max)
reported.endpoint: Tmax (h)
Reply numerically in h, unit not repeated.

Q: Annotate the compound Cc1nc(-c2cnc(NC(C)C)n(C)c2=O)ccc1Oc1ccnc(-c2cnn(C)c2)c1 [Compound 1] with its measured Tmax.
A: 4

###

measurement.notes: Plasma pharmacokinetics of Compound 1 in patients with advanced solid tumor malignancies and TGCT
Type: in vivo, human
study.conditions: human, plasma, oral, 10 mg, Cohort 2 10 mg Twice Weekly after 5-day QD loading dose; C1D8; GM (CV %)
reported.endpoint: Cmax (ng/mL)
Report the figure in ng/mL without appending any unit label.

Q: Input `Cc1nc(-c2cnc(NC(C)C)n(C)c2=O)ccc1Oc1ccnc(-c2cnn(C)c2)c1` , output reported Cmax.
A: 248

###

measurement.notes: Plasma pharmacokinetics of Compound 1 in patients with advanced solid tumor malignancies and TGCT
Format: in vivo, human
study.conditions: human, plasma, oral, 10 mg, Cohort 2 10 mg Twice Weekly after 5-day QD loading dose; C1D8; Median (Min, Max)
reported.endpoint: Tmax (h)
Answer format: numeric, h implied, no suffix.

Q: Assign Tmax to the following record: `Cc1nc(-c2cnc(NC(C)C)n(C)c2=O)ccc1Oc1ccnc(-c2cnn(C)c2)c1`
A: 1

###

measurement.notes: Plasma pharmacokinetics of Compound 1 in patients with advanced solid tumor malignancies and TGCT
Format: in vivo, human
study.conditions: human, plasma, oral, 30 mg, Cohort 5 30 mg Twice Weekly after 5-day QD loading dose; C1D8; Median (Min, Max)
reported.endpoint: Tmax (h)
Report as a plain number; the unit h is understood.

Q: Dear colleague, please send me the reported Tmax for `Cc1nc(-c2cnc(NC(C)C)n(C)c2=O)ccc1Oc1ccnc(-c2cnn(C)c2)c1` when you can.
A: 1

###

measurement.notes: Plasma pharmacokinetics of Compound 1 in patients with advanced solid tumor malignancies and TGCT
Assay type: in vivo, human
study.conditions: human, plasma, oral, 20 mg, Cohort 3 20 mg QD x 5 d, QW maintenance dose; C1D8; Geo Mean
reported.endpoint: Cmax (ng/mL)
Respond numerically; units are ng/mL and should not be typed.

Q: Supply reported Cmax belonging to this molecule: `Cc1nc(-c2cnc(NC(C)C)n(C)c2=O)ccc1Oc1ccnc(-c2cnn(C)c2)c1`
A: 1160

###

measurement.notes: Plasma pharmacokinetics of Compound 1 in patients with advanced solid tumor malignancies and TGCT
Format: in vivo, human
study.conditions: human, plasma, oral, 10 mg, Cohort 2 10 mg Twice Weekly after 5-day QD loading dose; Day-7; GM (CV %); read-out: AUC0-8
Procedure: PK analysis was conducted on all 38 patients. […] PD effects were measured by two methodologies: 1) depletion of CSF1R-expressing monocytes in peripheral blood (Cohorts 1-7) from C1D1, C1D15 and C2D1; and 2) increase of plasma levels of CSF1 and IL-34, the ligands for CSF1R (Cohorts 1-7) on C1D1, C1D15, and C2D1. […]
reported.endpoint: AUC(0-t) (ng·h/mL)
Numeric answer only, unit ng·h/mL assumed.

Q: Provide one value: measured AUC(0-t) of `Cc1nc(-c2cnc(NC(C)C)n(C)c2=O)ccc1Oc1ccnc(-c2cnn(C)c2)c1`
A: 353

The values you see were collected from patent US11679110B2.
